Give TGI for every item shown.
# System: ACHN renal
# assay details: NCI tumour cell line growth inhibition, 48 h
One number for each entry, in µM.

Would you please look over these solved cases?
The measured TGI associated with "Cc1ccc2c3c1O[C@H]1c4nc5ccccc5cc4C[C@@]4(O)[C@@H](C2)N(CC2CC2)CC[C@]314" reads 23.4

The measured TGI associated with "Cc1ccc(N2C(=O)C(Cl)=C(Nc3cccc(O)c3)C2=O)cc1Cl" reads 32.7

The measured TGI associated with "CCCCCc1c(CCCC)c(=O)[nH]c2cc(CNCC(OC)OC)ccc12" reads 27.8

I have 3 compounds here; please give me TGI for each one.
1. O=Nc1c2cccnc2n2nnc3ccc(Cl)cc3c12
2. COc1ccc2nc3c([N+](=O)[O-])ccc4c3c(c2c1)NCCN4C
3. O=c1c(OC/C(=N/O)c2ccccc2)c(-c2ccccc2)oc2ccccc12

2.02
5.92
28

----------
# System: MALME-3M melanoma
# assay details: NCI tumour cell line growth inhibition, 48 h
Where a SMILES comes first, the peptide text is derived from it. The star is where a group is joined. Boc = CC(C)(C)OC(=O)*
outcome measure: TGI

The measured TGI associated with "CCOC(=O)c1c2ccc(/C=C/C(=O)OC)ccc-2c(C(=O)OCC)c1N" reads > 100 µM

The measured TGI associated with "c1cc2c(cnc3cscc32)s1" reads > 100 µM

The measured TGI associated with "c1ccc2c(NCCCCCCCCNc3c4ccccc4nc4ccccc34)c3ccccc3nc2c1" reads 2.63 µM

I have 2 compounds here; please give me TGI for each one.
1. Cc1ccc2[nH]c(=O)c(-c3cnc(=O)[nH]n3)c(O)c2c1
2. Cn1cnc([N+](=O)[O-])c1Sc1ncnc2nc[nH]c12

1. > 100 µM
2. > 100 µM

I have 5 compounds here; please give me TGI for each one.
1. CCCCCCCCCCCCC(SCCNC(=O)CCNC(=O)C(O)C(C)(C)COP(=O)(O)OP(=O)(O)OCC1OC(n2cnc3c(N)ncnc32)C(O)C1OP(=O)(O)O)C(=O)NCC(N)=O (stereo not given)
2. c1ccc(COc2ccc3[nH]c4c(ncc5[nH]c6ccccc6c54)c3c2)cc1
3. OC1CCC(Oc2cccc3cnc(Nc4ccc5nc[nH]c5c4)nc23)CC1 (stereo not given)
4. Cc1nc2c(Br)cc(Br)cc2c(=O)n1-c1ccccc1N
5. CC(NC(=O)C(NC(=O)OC(C)(C)C)C(C)C)C(=O)NCC(=O)O (stereo not drawn) (Boc-Val-Ala-Gly-OH; configuration not given here)

1. > 100 µM
2. 18.2 µM
3. 5.01 µM
4. > 100 µM
5. > 100 µM

----------
# Tested on: OVCAR-4 ovarian
# assay details: NCI tumour cell line growth inhibition, 48 h
Give TGI for every item shown.

Note to self: TGI of O=C1CC(c2cccc(Cl)c2)n2cccc21 (stereo unspecified) with OVCAR-4 ovarian was > 100 µM

Note to self: TGI of COc1cccc(/C=C/C2=NN(c3cccc(S(=O)(=O)O)c3)C3(C2)SCC(=O)N3c2nc3ccccc3s2)c1 (stereo unspecified) with OVCAR-4 ovarian was > 100 µM

Note to self: TGI of "Cc1c2ncccc2c(C)c2c1[nH]c1ccccc12" with OVCAR-4 ovarian was 43.4 µM

Note to self: TGI of "O=c1c(OC/C(=N/O)c2ccccc2)c(-c2ccccc2)oc2ccccc12" with OVCAR-4 ovarian was > 50 µM

Note to self: TGI of COc1cccc(C2c3cc4c(cc3OC(N3CCOCC3)C2C)OCO4)c1O (stereo unspecified) with OVCAR-4 ovarian was > 100 µM

Note to self: TGI of "Cc1nnc2c3c(-c4ccccc4)c(-c4ccccc4)oc3nc(N(C)C)n12" with OVCAR-4 ovarian was > 100 µM

Note to self: TGI of "CN(C)Cc1cc(C(=O)/C=C/c2ccc(/C=C/C(=O)c3cc(CN(C)C)c(O)c(CN(C)C)c3)cc2)cc(CN(C)C)c1O" with OVCAR-4 ovarian was > 100 µM

Note to self: TGI of "CCOC(=O)/C=C/c1ccc(C(=O)OCC)[nH]1" with OVCAR-4 ovarian was > 100 µM

Note to self: TGI of c1ccc2c(c1)SC1Sc3ccccc3[S+]21 (stereo unspecified) with OVCAR-4 ovarian was > 100 µM

Note to self: TGI of "CCCN(CCC)c1c([N+](=O)[O-])cc(S(N)(=O)=O)cc1[N+](=O)[O-]" with OVCAR-4 ovarian was 26.9 µM

I have 2 compounds here; please give me TGI for each one.
1. CC/C=C\C[C@H](O)C/C=C1/C(=O)C=C[C@@H]1C/C=C\CCCC(N)=O
2. CC(=O)C(=C(I)I)c1ccccc1

["16.8 µM", "31.3 µM"]

I have 4 compounds here; please give me TGI for each one.
1. COC(=O)/C=C1/OC(c2ccccc2)=C(Cl)C1=O
2. O=S(=O)(O)c1ccc2cc(N=Nc3cc(S(=O)(=O)O)c4cccnc4c3O)ccc2c1
3. CN(C)CN1C(=O)S/C(=C2\C(=O)N(CN(C)C)c3ccccc32)C1=O
4. CC[C@@]1(OC(=O)CCC(=O)O)C(=O)OCc2c1cc1n(c2=O)Cc2cc3ccccc3nc2-1

1. 39 µM
2. > 100 µM
3. > 100 µM
4. 13.3 µM
